Origin of the recorded values: the supplement of paper PMC8967900

Tested on: ALL-PO
Assay name: selective drug sensitivity score (sDSS, relative to normal bone marrow) (sDSS (score)); higher = more potent and effective on the cell line relative to normal bone marrow cells;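 further: ALL cell lines in 384-well plates, five doses spanning 10,000-fold, each plate scaled between vehicle and 100 µmol/L benzalkonium chloride controls, sDSS an adapted area-under-curve metric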
Experimental setup: 72 h
Output t for selective drug sensitivity score not less than 0; output f otherwise.

compound="NCCNc1ccc(NCCN)c2c1C(=O)c1ccncc1C2=O [Pixantrone] (top concentration 10000 nM)" experimental_system=ALL-PO class=f
compound="C=CCn1c(=O)c2cnc(Nc3ccc(N4CCN(C)CC4)cc3)nc2n1-c1cccc(C(C)(C)O)n1 [AZD1775] (top concentration 10000 nM)" experimental_system=ALL-PO class=t
compound="C[C@H](Nc1ncnc2[nH]cnc12)c1cc2ccc(F)cc2nc1-c1ccccn1 [AMG319] (top concentration 1000 nM)" experimental_system=ALL-PO class=f
compound="CCCc1cc(C)[nH]c(=O)c1CNC(=O)c1cc(-c2ccnc(N3CCN(C)CC3)c2)cc2c1cnn2C(C)C [GSK343] (top concentration 1000 nM)" experimental_system=ALL-PO class=t

Would you kindly look at the next entry?
Inquiry: Hello, I need to know if Nc1nc(Cl)nc2c1ncn2[C@H]1C[C@H](O)[C@@H](CO)O1 [Cladribine] (top concentration 1000 nM) has measured selective drug sensitivity score not below 0. Thanks!
Reply text: t

----------
Listed here: items and their measured selective drug sensitivity score.
Test system: KASUMI-10
Assay name: selective drug sensitivity score (sDSS, relative to normal bone marrow) (sDSS (score)); higher = more potent and effective on the cell line relative to normal bone marrow cells
Experimental setup: 72 h
Returns: the value as a bare number; no unit string appended.

# count of solved cases: 2
compound="O=C(/C=C\\n1cnc(-c2cc(C(F)(F)F)cc(C(F)(F)F)c2)n1)NNc1ccccn1 [Verdinexor] (top concentration 1000 nM)" experimental_readout="selective drug sensitivity score" value_reported=1.54
compound="CNC(=O)c1ccccc1Nc1cc(Nc2ccc(N3CCOCC3)cc2OC)ncc1C(F)(F)F [VS-4718] (top concentration 10000 nM)" experimental_readout="selective drug sensitivity score" value_reported=11.2

Measured selective drug sensitivity score, O=C(NC[C@H](O)CN1CCc2ccccc2C1)c1cc(NC2COC2)ncn1 (top concentration 10000 nM) : -0.06

Kindly note the recorded selective drug sensitivity score for Cc1cccc(CC(=O)N2CCc3c2ccc(-c2cn(C)c4ncnc(N)c24)c3F)n1 (top concentration 2500 nM) , which is -0.68

For record CCN(CC)CCOc1ccc(/C(=C(/Cl)c2ccccc2)c2ccccc2)cc1 [Clomifene] (top concentration 10000 nM) the listed selective drug sensitivity score is -1.78

// selective drug sensitivity score lookup, compound = CC1=C(/C=C/C(C)=C/C=C/C(C)=C/C(=O)O)C(C)(C)CCC1 [Tretinoin] (top concentration 10000 nM) , result: -1.8

----------
Reported selective drug sensitivity score values are given for each entry in this list.
Test system: PEER
Assay name: selective drug sensitivity score (sDSS, relative to normal bone marrow) (sDSS (score)); higher = more potent and effective on the cell line relative to normal bone marrow cells
Experimental setup: 72 h
Just the number, please, no unit attached.

compound="Cc1cn(-c2cc(NC(=O)c3ccc(C)c(Nc4nccc(-c5cccnc5)n4)c3)cc(C(F)(F)F)c2)cn1 [Nilotinib] (top concentration 10000 nM)" value_reported=18.1
compound="O=C(c1cccc(Cl)c1F)N1CCN(Cc2cccc(Nc3nccs3)n2)CC1 [MK-8745] (top concentration 10000 nM)" value_reported=9.8
compound="C[C@]12C=CC(=O)C=C1CC[C@@H]1[C@@H]2[C@@H](O)C[C@@]2(C)[C@H]1CC[C@]2(O)C(=O)CO [Prednisolone] (top concentration 10000 nM)" value_reported=-3
compound="Cc1cc(Nc2cc(CN3CCOCC3)c3nc(C)c(Cc4ccc(Cl)cc4F)n3n2)n[nH]1 [Gandotinib] (top concentration 10000 nM)" value_reported=8.68
compound="C=CC(=O)Nc1cc2c(Nc3ccc(F)c(Cl)c3)ncnc2cc1OCCCN1CCOCC1 [Canertinib] (top concentration 10000 nM)" value_reported=2.26

Turning now to a further compound:
Given the compound CC(C)(C)c1cc(NC(=O)Nc2ccc(-c3cn4c(n3)sc3cc(OCCN5CCOCC5)ccc34)cc2)no1 [Quizartinib] (top concentration 1000 nM) and test system PEER, the measured selective drug sensitivity score is -0.02
